system_name: T1, human DLL4 extracellular domain (human, UniProt Q9NR61 27-529)
T1 construct: purified recombinant ECD; biotin-labelled or 6xHis-tagged depending on the assay; also called huDLL4 ECD; hu DLL4 ECD
procedure_summary: binding ELISA
Please provide measured EC50 for the entries that follow.
Report field: quantity (unit follows the number).

| binder | EC50 |
| --- | --- |
| h1A11.8 (antibody, V domains shown, humanized IgG; also called VH.1a/VL.2a 1A11) VH: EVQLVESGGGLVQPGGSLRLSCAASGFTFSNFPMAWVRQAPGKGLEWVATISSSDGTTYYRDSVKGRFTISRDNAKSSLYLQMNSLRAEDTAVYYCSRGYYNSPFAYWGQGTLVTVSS VL: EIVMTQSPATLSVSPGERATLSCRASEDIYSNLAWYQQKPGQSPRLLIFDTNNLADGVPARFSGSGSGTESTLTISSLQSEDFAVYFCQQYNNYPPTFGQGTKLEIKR | 0.06 nM |

Proceed to the following item.
EC50 measured on h1A11.16 (antibody, V domains shown, humanized IgG; also called VH.2a/VL.2a 1A11) VH: EVQLVESGGGLVQPGGSLRLSCAASGFTFSNFPMAWVRQAPGKGLEWVATISSSDGTTYYRDSVKGRFTISRDNSKSTLYLQMNSLRAEDTAVYYCSRGYYNSPFAYWGQGTLVTVSS VL: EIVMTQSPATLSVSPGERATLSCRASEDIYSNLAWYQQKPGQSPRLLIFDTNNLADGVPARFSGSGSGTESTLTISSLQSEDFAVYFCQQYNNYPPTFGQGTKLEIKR = 0.06 nM

All values here come from patent US20110217237A1.
